Where these numbers come from: ChEMBL document CHEMBL3608246

measured-on: Cytochrome P450 2C19 (Homo sapiens, UniProt P33261)
Sequence (P33261 whole entry): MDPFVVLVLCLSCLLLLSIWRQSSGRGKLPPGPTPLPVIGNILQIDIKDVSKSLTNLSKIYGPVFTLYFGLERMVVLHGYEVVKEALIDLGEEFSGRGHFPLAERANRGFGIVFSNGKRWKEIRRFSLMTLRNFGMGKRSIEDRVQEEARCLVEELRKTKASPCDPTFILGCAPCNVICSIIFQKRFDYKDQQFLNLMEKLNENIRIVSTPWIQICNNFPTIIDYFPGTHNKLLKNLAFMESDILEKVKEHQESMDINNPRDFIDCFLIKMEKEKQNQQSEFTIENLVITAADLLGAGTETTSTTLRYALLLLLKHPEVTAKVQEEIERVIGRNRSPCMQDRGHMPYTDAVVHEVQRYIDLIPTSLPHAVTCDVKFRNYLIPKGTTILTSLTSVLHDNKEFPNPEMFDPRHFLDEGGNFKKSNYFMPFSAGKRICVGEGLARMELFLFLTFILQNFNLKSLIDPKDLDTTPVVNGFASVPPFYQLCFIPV
assay-explanation: Inhibition of human CYP2C19 by luminometry
Mark 1 only for EC50 values smaller than 3000 nM; exact matches and larger values are 0.

{"compound": "COC(=O)N[C@@H](C(=O)N1CCC[C@H]1C(=O)Nc1ccc(-c2ccc(NC(=O)[C@@H]3CCCN3C(=O)[C@H](NC(=O)OC)c3ccccc3)cc2F)c(F)c1)c1ccccc1", "category": 1}
{"compound": "COC(=O)N[C@@H](C(=O)N1CCC[C@H]1C(=O)Nc1ccc(-c2ccc(NC(=O)[C@@H]3CCCN3C(=O)[C@H](NC(=O)OC)c3ccccc3)cc2Cl)c(Cl)c1)c1ccccc1", "category": 1}
{"compound": "COC(=O)N[C@@H](C(=O)N1CCC[C@H]1C(=O)Nc1ccc(-c2ccc(NC(=O)[C@@H]3CCCN3C(=O)[C@H](NC(=O)OC)c3ccccc3)cc2C(F)(F)F)c(C(F)(F)F)c1)c1ccccc1 (stereo in doubt; form 1)", "category": 0}
{"compound": "COC(=O)N[C@@H](C(=O)N1CCC[C@H]1C(=O)Nc1ccc2c(c1)C(F)(F)c1cc(NC(=O)[C@@H]3CCCN3C(=O)[C@H](NC(=O)OC)c3ccccc3)ccc1-2)c1ccccc1", "category": 0}
